Value source: PubChem BioAssay (NCATS)

- protocol description: qHTS Assay for Lipid Storage Modulators (AID 1519)
- conditions used: Drosophila S3 cells, BODIPY lipid droplet/cell ratio, laser cytometry; measured here: lipid channel max response; cells loaded with oleic acid
Results filed as inconclusive are left out.
measurement label: max response (%)
One number for each entry, in %.

| compound | max response / % |
| --- | --- |
| Cn1cccc1C(=O)N1CCC2(CC1)CCN(c1ccncc1)CC2 | 2.95 |
| COc1ccc2c(c1)[C@@]1(C)CCC[C@](C)(CO)C1CC2 (stereo not given in full) | 28.8 |
| COC(=O)N1CCC[C@@]2(CCN(c3ccccc3)C2)C1 | -1.29 |

Batch of 5 compounds: report max response for each.
1. CS(=O)(=O)N1CCC[C@@]2(CCN(C(c3ccccc3)c3ccccc3)C2)C1
2. CO[C@H]1C[C@@H](O[C@@H]2[C@H](C)[C@H](O[C@@H]3O[C@@H](C)C[C@@H](N(C)C)[C@@H]3O)[C@H](C)C[C@]3(CO3)C(=O)[C@H](C)[C@H](O)[C@H](C)[C@H](C)OC(=O)[C@@H]2C)O[C@@H](C)[C@H]1O
3. C[C@@H](C[N+](C)(C)C)OC(N)=O
4. COc1ccc(C(=O)N2CCC[C@@]3(CCN(c4ccccn4)C3)C2)cc1
5. N#Cc1cccc(NC(=O)N2CCCC3(CCN(C(=O)c4ccco4)CC3)C2)c1

stdout:
1: -82.6; 2: 11.6; 3: -3.27; 4: 23.4; 5: 16.6

Batch of 5 compounds: report max response for each.
1. O=c1c(O)c(-c2ccc(O)c(O)c2)oc2c(OC3OC(CO)C(O)C(O)C3O)c(O)cc(O)c12 (stereo not given)
2. COCC(=O)N1CCC[C@@]2(CCN(c3ccccn3)C2)C1
3. COc1ccc(CNc2ncnc3ccc(-c4ccoc4)cc23)c(OC)c1
4. CC(C)CN1CC2(CCN(C(=O)c3cnccn3)CC2)C1
5. COc1ccccc1-c1nc(N(C)C)c2ccccc2n1

stdout:
[7.27, -1.36, 6.18, 20.3, -1.67]

Batch of 4 compounds: report max response for each.
1. COc1ccccc1CN1CCCC2(CCN(C(=O)c3ccco3)CC2)C1
2. O=C(Oc1ccccc1)N1CCC2(CC1)CN(c1ccncc1)C2
3. O=C(c1csnn1)N1CCC2(CCCN(Cc3ccccc3)C2)CC1
4. O=S(=O)(c1ccccc1)N1CCC[C@@]2(CCN(Cc3cc(C(F)(F)F)cc(C(F)(F)F)c3)C2)C1

stdout:
1. 11.8
2. 4.81
3. 18
4. 25.2
